System: SK-MEL-2 melanoma
Assay: NCI-60 one-dose screen, 48 h
Conditions: 10 µM
Experimental: Growth inhibition of the SK-MEL-2 human tumor cell line is measured as a screen for anti-cancer activity. Cells are grown in 96 well plates and exposed to the test compound for 48 hours. Compounds are tested at a single concentration, which is 10^-5 M for most compounds. The reported endpoint is percent growth (GI% or GIPRCNT), where numbers from 0 - 100% represent growth inhibition, and numbers from -100% - 0 represent cell death. For example, a value of 40 represents 60% growth inhibition. […]
The panel holds about 83,000 compounds, 20% with a hit somewhere; the sample as a whole holds those more often. The source made the active and inactive calls. How the source made its calls: active means growth percent below 10; inactive means the rest.
The reply should name one outcome from true (active), false (inactive)

{"RECORD_SMILES": "CN1CCN(c2ccc(C(=O)/C=C/c3cc(C(F)(F)F)ccc3Cl)cc2)CC1", "EXPERIMENTAL_TARGET": "SK-MEL-2 melanoma", "GROUP": "false"}
{"RECORD_SMILES": "CC(=O)c1ccc(Nc2nc(SC(C)C)nc(-c3ccccc3)c2C#N)cc1", "EXPERIMENTAL_TARGET": "SK-MEL-2 melanoma", "GROUP": "false"}
{"RECORD_SMILES": "Cc1ccc(-c2ccc(SCC(=O)Nc3ccc(Cl)c(C(F)(F)F)c3)nn2)cc1", "EXPERIMENTAL_TARGET": "SK-MEL-2 melanoma", "GROUP": "false"}
{"RECORD_SMILES": "Cc1ccc(/C=C(\\C#N)n2nnc3c(F)cccc32)cc1", "EXPERIMENTAL_TARGET": "SK-MEL-2 melanoma", "GROUP": "false"}
{"RECORD_SMILES": "OCCNc1oc(-c2ccccc2)nc1[P+](c1ccccc1)(c1ccccc1)c1ccccc1", "EXPERIMENTAL_TARGET": "SK-MEL-2 melanoma", "GROUP": "true"}

Please find the next compound below.
stdin: Recorded call for O=C1NC(=NC23CC4CC(CC(C4)C2)C3)N/C1=C\c1ccc2ncccc2n1 ?
stdout: true

###

test system: KM12 colon; test: NCI-60 one-dose screen, 48 h (100 = growth as untreated, 0 = no growth, -100 = all killed); details: 10 µM
About 83,000 compounds went through this panel and 20% of them were active in at least one assay; those are over-represented in the sample as a whole.
MEASURED_ENDPOINT: growth (%)
Answers are plain numbers, in %.

Some solved entries appear below for comparison.
{"MOLECULE": "COc1cc(OC(F)(F)F)ccc1C(=O)Nc1sc2c(c1C#N)CCC(=O)C2", "UNIT_SYMBOL": "%", "growth": 88.1}
{"MOLECULE": "O=c1oc2ccccc2cc1-c1csc(N=Nc2c(O)[nH]c3ccc(Br)cc23)n1", "UNIT_SYMBOL": "%", "growth": 99.9}
{"MOLECULE": "O=C(CSc1nnc(-c2ccc3nc(-c4ccccc4)[nH]c3c2)o1)Nc1ccc(Br)cc1", "UNIT_SYMBOL": "%", "growth": 53.9}
{"MOLECULE": "O=C(Cn1nc(-c2ccccc2)ccc1=O)NN1C(=O)c2ccccc2C1=O", "UNIT_SYMBOL": "%", "growth": 103}
{"MOLECULE": "COc1cc(NC(=O)c2cc(-c3ccc(F)cc3F)ccc2O)cc(OC)c1OC", "UNIT_SYMBOL": "%", "growth": 29.8}

// each molecule listed below needs its growth
1. O=c1oc2ccc(-c3ccc(F)cc3F)cc2c(=O)n1-c1ccc(F)c(Cl)c1
2. O=C(c1ccc(Cl)cc1)C1[C@H](c2ccc(Br)cc2)[C@@H](c2ccccc2)NC12C(=O)Nc1ccccc12 (some centres undefined)
3. O=C1Nc2ccc(Cl)cc2/C1=C/c1cccc(OCc2ccccc2)c1

stdout:
1: -22.7; 2: -3.73; 3: 38.9

Lab note: C=C1CCC2C3(C)COC(c4cccc(F)c4)OC3CCC2(C)C1CC(O)C1=CCOC1=O (centres undefined) gave growth of 59.6
